# MEASUREMENT_DESCRIPTION: Liquid-state 13C-NMR after dissolution of hyperpolarized sample (T1, polarization, hydrolysis)
# Type: physicochemical
# TEST_CONTEXT: 13C longitudinal relaxation time, 37 C, 14.1 T; in s (unit assumed)
OBSERVED_PROPERTY: T1, 37 C. 14.1 T

// solved cases for T1, 37 C. 14.1 T follow
COMPOUND: [2H]C([2H])(OC(C)=O)[13C]1(C([2H])([2H])OC(C)=O)C([2H])([2H])C1([2H])[2H]
T1, 37 C. 14.1 T: 85
//
COMPOUND: C[C@H](N)[13C](=O)O [1-13C-alanine]
T1, 37 C. 14.1 T: 31
//
COMPOUND: O=[13C](O)CC(O)[13C](=O)O (stereo not drawn) [1,4-13C2-malate]
T1, 37 C. 14.1 T: 30
//
COMPOUND: [2H]C([2H])(O)[13C]([2H])([2H])[N+](C)(C)C [2-13C-1,1,2,2-d4-choline]
T1, 37 C. 14.1 T: 43

[P] C[C@H](O)[13C](=O)O [1-13C-lactate, reference compound]
[Q] O[13CH2][13C@H]1O[13CH](O)[13C@H](O)[13C@@H](O)[13C@@H]1O (stereo partly drawn)
// which entry has the larger T1, 37 C. 14.1 T value, P or Q ? Give the label of your selection.
P
(P: 40, Q: 15)

---

# MEASUREMENT_DESCRIPTION: Liquid-state 13C-NMR after dissolution of hyperpolarized sample (T1, polarization, hydrolysis)
# Format: physicochemical
# TEST_CONTEXT: 13C longitudinal relaxation time, 37 C, 14.1 T; in s (unit assumed)
OBSERVED_PROPERTY: T1, 37 C. 14.1 T

COMPOUND: C[13C](=O)O [1-13C-acetate]
T1, 37 C. 14.1 T: 50
//
COMPOUND: CC([13CH3])CC(=O)C(=O)O (stereo not drawn) [1-13C-2-ketoisocaproate]
T1, 37 C. 14.1 T: 35
//
COMPOUND: OC[C@H]1O[13CH](O)[C@H](O)[C@@H](O)[C@@H]1O (stereo partly drawn) [1-13C-glucose]
T1, 37 C. 14.1 T: 20
//
COMPOUND: CC(=O)[13C](=O)O [1-13C-pyruvate]
T1, 37 C. 14.1 T: 45

[1] N[C@@H](CC[13C](N)=O)C(=O)O [5-13C-glutamine]
[2] O=[13C](O)/C=C/[13C](=O)O [1,4-13C2-Fumarate]
// which entry has the larger T1, 37 C. 14.1 T value, 1 or 2 ? Give the label of your selection.
2
